The following molecules are shown together with reported Ki values.
- Assay system: Sodium-dependent dopamine transporter (Homo sapiens, UniProt Q01959)
- Sequence (Q01959 whole entry): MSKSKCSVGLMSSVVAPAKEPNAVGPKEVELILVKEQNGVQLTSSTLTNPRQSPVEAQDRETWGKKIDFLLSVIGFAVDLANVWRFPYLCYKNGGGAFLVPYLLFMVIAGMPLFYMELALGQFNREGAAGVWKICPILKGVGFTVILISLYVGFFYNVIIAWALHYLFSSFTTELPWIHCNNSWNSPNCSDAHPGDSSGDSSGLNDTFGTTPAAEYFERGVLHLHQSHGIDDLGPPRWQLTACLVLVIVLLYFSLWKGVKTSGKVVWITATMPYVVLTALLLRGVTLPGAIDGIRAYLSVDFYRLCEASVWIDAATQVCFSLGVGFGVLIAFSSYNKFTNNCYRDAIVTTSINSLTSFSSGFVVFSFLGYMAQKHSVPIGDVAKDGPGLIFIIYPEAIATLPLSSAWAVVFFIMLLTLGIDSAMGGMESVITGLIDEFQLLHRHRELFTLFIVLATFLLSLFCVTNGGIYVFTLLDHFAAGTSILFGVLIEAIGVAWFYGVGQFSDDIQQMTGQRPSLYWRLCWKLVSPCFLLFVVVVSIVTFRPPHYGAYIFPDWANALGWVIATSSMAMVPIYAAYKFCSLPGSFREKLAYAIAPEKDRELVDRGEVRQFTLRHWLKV
- Measurement description: Displacement of [3H]CFT from human DAT expressed in COS7 cells
- Assay type: cell-based, COS-7
Just the number please, in nM, no unit attached.

>  <Molecule>
CCN(CC)c1ccc2c(-c3ccc(S(=O)(=O)NCCCCCC(=O)NCCOC(=O)[C@@H]4C5CCC(C[C@@H]4c4ccc(Cl)c(Cl)c4)N5C)cc3S(=O)(=O)[O-])c3ccc(=[N+](CC)CC)cc-3oc2c1 (some centres undefined)

>  <Unit spec>
nM

>  <Ki>
27

$$$$
>  <Molecule>
CCN(CC)c1ccc2c(-c3ccc(S(=O)(=O)NCCCCCC(=O)NCCN4C5CCC4[C@@H](C(=O)OC)[C@@H](c4ccc(Cl)c(Cl)c4)C5)cc3S(=O)(=O)[O-])c3ccc(=[N+](CC)CC)cc-3oc2c1 (some centres undefined)

>  <Unit spec>
nM

>  <Ki>
18

$$$$
>  <Molecule>
COC(=O)[C@@H]1C2CCC(C[C@@H]1c1ccc(Cl)c(Cl)c1)N2CCNC(=O)CCCN1CCCc2cc3c(cc21)C(C)(C)C1=CC(=[N+](C)C)C=CC1=C3 (some centres undefined)

>  <Unit spec>
nM

>  <Ki>
50

$$$$

Ki reading for COC(=O)[C@@H]1C2CCC(C[C@@H]1c1ccc(Cl)c(Cl)c1)N2C (some centres undefined) : 0.2
